Where do the numbers come from? From the NIST ThermoML archive (doi:10.1021/acs.jced.6b00563).

Property: speed of sound; scope: individual molecules
settings: 308.15 K; 100 kPa; Liquid; Sing-around technique in a fixed-path interferometer
measured.attribute: speed of sound (m/s)

[[record]]
molecule = "CCCCCO [pentan-1-ol]"
measured_attribute = "speed of sound"
unit_descriptor = "m/s"
reported_measurement = 1242

[[record]]
molecule = "CCCO [propan-1-ol]"
measured_attribute = "speed of sound"
unit_descriptor = "m/s"
reported_measurement = 1175

[[record]]
molecule = "CCCCO [butan-1-ol]"
measured_attribute = "speed of sound"
unit_descriptor = "m/s"
reported_measurement = 1206

[[record]]
molecule = "CCO [ethanol]"
measured_attribute = "speed of sound"
unit_descriptor = "m/s"
reported_measurement = 1109

